Tested on: Rattus norvegicus
Experiment: Diuretic activity was determined in SH rats expressed as K(+) (potassium) excreted in milli equivalents was reported for a duration of 5 hours after administration of a dose of 100 mg/Kg.
Type: ADME, organism-based, Urine
Conditions: in vivo
Below, each entry is listed alongside its reported Diuretic activity.
parameter_measured: Diuretic activity

> print(dat)
                                   molecule  measurement.target   assay.value
1  NS(=O)(=O)c1cc2c(cc1Cl)NCNS2(=O)=O [HYDROCHLOROTHIAZIDE]   Rattus norvegicus  0.65 m equiv
2  CN(C)/C=N/c1c(Cl)cc(NCc2cccc(C(F)(F)F)c2)cc1Cl   Rattus norvegicus   0.5 m equiv
3     CN(C)/C=N/c1c(Cl)cc(NCc2ccccc2O)cc1Cl   Rattus norvegicus  0.68 m equiv
4  CN(C)/C=N/c1c(Cl)cc(NCc2ccc(-c3ccccc3)cc2)cc1Cl   Rattus norvegicus   0.5 m equiv
5   CN(C)/C=N/c1c(Cl)cc(NCc2cccc(F)c2)cc1Cl   Rattus norvegicus  0.59 m equiv
6  CC(=O)Nc1ccc(CNc2cc(Cl)c(/N=C/N(C)C)c(Cl)c2)cc1   Rattus norvegicus  0.62 m equiv

* * *

Test system: Rattus norvegicus
Test: Antihypertensive activity in SH rats, and mean arterial blood pressure was reported at a dose of 25 mg/Kg
Type: functional, Artery
Below, each entry is listed alongside its reported MABP.
parameter_measured: MABP

> print(dat)
                                smiles.text  assay.value
1  COc1cc(N(C)C)ccc1CNc1cc(Cl)c(/N=C/N(C)C)c(Cl)c1     114 mmHg
2  CN(C)/C=N/c1c(Cl)cc(NCc2ccc(N(C)C)cc2F)cc1Cl     155 mmHg
3  CN(C)/C=N/c1c(Cl)cc(NCc2cc(Cl)cc(Cl)c2)cc1Cl     139 mmHg
4  CN(C)/C=N/c1c(Cl)cc(NCc2ccc(N(C)C)c(Br)c2)cc1Cl     173 mmHg
5  CCN(CC)c1ccc(CNc2cc(Cl)c(/N=C/N(C)C)c(Cl)c2)cc1     153 mmHg
6  Cc1cc(N(C)C)ccc1CNc1cc(Cl)c(/N=C/N(C)C)c(Cl)c1     138 mmHg
7  CN(C)/C=N/c1c(Cl)cc(NCc2ccc(N(C)C)cc2Br)cc1Cl     115 mmHg
8  CN(C)/C=N/c1c(Cl)cc(NCc2ccc(N(C)C)cc2)cc1Cl     171 mmHg
9                   Clc1cccc(Cl)c1NC1=NCCN1     113 mmHg

* * *

Experiment: Diuretic activity was determined expressed as volume of urine excreted in mL was reported at a dose of 25 mg/Kg
Format: ADME
Details: in vivo
parameter_measured: Diuretic activity (mL)

> print(dat)
                                smiles.text  parameter.measured  reading.unit  assay.value
1  CCN(CC)c1ccc(CNc2cc(Cl)c(/N=C/N(C)C)c(Cl)c2)cc1   Diuretic activity            mL         21.3
2  CN(C)/C=N/c1c(Cl)cc(NCc2ccc(N(C)C)c(Br)c2)cc1Cl   Diuretic activity            mL           14
3  CN(C)/C=N/c1c(Cl)cc(NCc2ccc(N(C)C)cc2)cc1Cl   Diuretic activity            mL          5.5
4  CN(C)/C=N/c1c(Cl)cc(NCc2cc(Cl)cc(Cl)c2)cc1Cl   Diuretic activity            mL         13.8
5  COc1cc(N(C)C)ccc1CNc1cc(Cl)c(/N=C/N(C)C)c(Cl)c1   Diuretic activity            mL         22.5
6  CN(C)/C=N/c1c(Cl)cc(NCc2ccc(N(C)C)cc2F)cc1Cl   Diuretic activity            mL         23.5
7  Cc1cc(N(C)C)ccc1CNc1cc(Cl)c(/N=C/N(C)C)c(Cl)c1   Diuretic activity            mL         25.5
8  CN(C)/C=N/c1c(Cl)cc(NCc2ccc(N(C)C)cc2Br)cc1Cl   Diuretic activity            mL         19.3

* * *

Test system: Rattus norvegicus
Assay: Antihypertensive activity determined as heart rate in SH rats, was reported at a dose of 25 mg/Kg
Type: functional
Below, each entry is listed alongside its reported HR.
parameter_measured: HR (beats min-1)

> print(dat)
                                   compound  parameter.measured  assay.value
1  CN(C)/C=N/c1c(Cl)cc(NCc2ccc(N(C)C)cc2Br)cc1Cl                  HR          280
2  Cc1cc(N(C)C)ccc1CNc1cc(Cl)c(/N=C/N(C)C)c(Cl)c1                  HR          270
3  CCN(CC)c1ccc(CNc2cc(Cl)c(/N=C/N(C)C)c(Cl)c2)cc1                  HR          400
4       Clc1cccc(Cl)c1NC1=NCCN1 [CLONIDINE]                  HR          220
5  CN(C)/C=N/c1c(Cl)cc(NCc2ccc(N(C)C)cc2)cc1Cl                  HR          450
6  CN(C)/C=N/c1c(Cl)cc(NCc2ccc(N(C)C)cc2F)cc1Cl                  HR          400
7  COc1cc(N(C)C)ccc1CNc1cc(Cl)c(/N=C/N(C)C)c(Cl)c1                  HR          270
8  CN(C)/C=N/c1c(Cl)cc(NCc2ccc(N(C)C)c(Br)c2)cc1Cl                  HR          420
9  CN(C)/C=N/c1c(Cl)cc(NCc2cc(Cl)cc(Cl)c2)cc1Cl                  HR          290

* * *

Assay: Diuretic activity was determined expressed as Na+(sodium) excreted in milli equivalents was reported for a duration of 5 hours after administration of a dose of 25 mg/Kg
Type: ADME, Urine
Settings: in vivo
parameter_measured: Diuretic activity

> print(dat)
                                smiles.text  parameter.measured   assay.value
1  CN(C)/C=N/c1c(Cl)cc(NCc2ccc(N(C)C)cc2F)cc1Cl   Diuretic activity  2.26 m equiv
2  CN(C)/C=N/c1c(Cl)cc(NCc2cc(Cl)cc(Cl)c2)cc1Cl   Diuretic activity  1.34 m equiv
3  Cc1cc(N(C)C)ccc1CNc1cc(Cl)c(/N=C/N(C)C)c(Cl)c1   Diuretic activity  2.59 m equiv
4  CCN(CC)c1ccc(CNc2cc(Cl)c(/N=C/N(C)C)c(Cl)c2)cc1   Diuretic activity  2.02 m equiv
5  CN(C)/C=N/c1c(Cl)cc(NCc2ccc(N(C)C)cc2Br)cc1Cl   Diuretic activity  1.86 m equiv
6  CN(C)/C=N/c1c(Cl)cc(NCc2ccc(N(C)C)cc2)cc1Cl   Diuretic activity  0.55 m equiv
7  CN(C)/C=N/c1c(Cl)cc(NCc2ccc(N(C)C)c(Br)c2)cc1Cl   Diuretic activity  1.18 m equiv
8  COc1cc(N(C)C)ccc1CNc1cc(Cl)c(/N=C/N(C)C)c(Cl)c1   Diuretic activity  2.16 m equiv

* * *

Test system: Rattus norvegicus
Test: Diuretic activity was determined in SH rats expressed as K(+) (potassium) excreted in milli equivalents was reported for a duration of 5 hours after administration of a dose of 25 mg/Kg.
Assay type: ADME, organism-based, Urine
Conditions: in vivo
Response key: T means Diuretic activity >= 0.5 m equiv; F means Diuretic activity < 0.5 m equiv.

> print(dat)
                                smiles.text  measurement.target  class
1  CCN(CC)c1ccc(CNc2cc(Cl)c(/N=C/N(C)C)c(Cl)c2)cc1   Rattus norvegicus      T
2  CN(C)/C=N/c1c(Cl)cc(NCc2ccc(N(C)C)cc2F)cc1Cl   Rattus norvegicus      T
3  CN(C)/C=N/c1c(Cl)cc(NCc2ccc(N(C)C)c(Br)c2)cc1Cl   Rattus norvegicus      T
4  CN(C)/C=N/c1c(Cl)cc(NCc2cc(Cl)cc(Cl)c2)cc1Cl   Rattus norvegicus      F
5  COc1cc(N(C)C)ccc1CNc1cc(Cl)c(/N=C/N(C)C)c(Cl)c1   Rattus norvegicus      T
6  CN(C)/C=N/c1c(Cl)cc(NCc2ccc(N(C)C)cc2Br)cc1Cl   Rattus norvegicus      F
7  CN(C)/C=N/c1c(Cl)cc(NCc2ccc(N(C)C)cc2)cc1Cl   Rattus norvegicus      F
